TEST_TARGET: CDK6/CycD1 (Homo sapiens)
Sequence (Q00534 whole entry): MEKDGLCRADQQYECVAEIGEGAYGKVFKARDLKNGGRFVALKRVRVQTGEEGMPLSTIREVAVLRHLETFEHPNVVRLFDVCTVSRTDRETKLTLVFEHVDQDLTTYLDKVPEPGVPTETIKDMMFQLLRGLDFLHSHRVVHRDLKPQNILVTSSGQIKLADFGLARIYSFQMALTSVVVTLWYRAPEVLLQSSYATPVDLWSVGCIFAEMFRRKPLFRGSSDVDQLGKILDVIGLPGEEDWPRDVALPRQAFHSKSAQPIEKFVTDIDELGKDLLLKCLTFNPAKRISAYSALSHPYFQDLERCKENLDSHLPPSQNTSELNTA
Sequence (P24385 whole entry partner): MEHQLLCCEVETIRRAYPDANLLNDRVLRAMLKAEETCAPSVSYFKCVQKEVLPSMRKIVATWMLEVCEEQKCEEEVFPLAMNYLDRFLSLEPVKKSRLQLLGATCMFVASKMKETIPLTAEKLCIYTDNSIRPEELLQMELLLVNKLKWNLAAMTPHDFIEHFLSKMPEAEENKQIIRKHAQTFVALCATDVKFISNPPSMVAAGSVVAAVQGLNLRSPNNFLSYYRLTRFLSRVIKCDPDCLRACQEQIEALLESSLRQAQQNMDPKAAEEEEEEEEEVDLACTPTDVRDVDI
TEST_NAME: In vitro kinase inhibition assay, CDK6/CycD1
ENDPOINT_NAME: pIC50
Keep it numeric: pIC50 is minus log10 of the concentration in mol/L.

Hello, I am looking for reported pIC50 with CDK6/CycD1 (Homo sapiens) for COc1ccccc1-c1cc(Nc2cccc(S(N)(=O)=O)c2)ncn1 [Compound A] . Could you help?
5.72

----------
TEST_TARGET: CDK4/CycD1 (Homo sapiens, UniProt P11802)
Sequence (P11802 whole entry): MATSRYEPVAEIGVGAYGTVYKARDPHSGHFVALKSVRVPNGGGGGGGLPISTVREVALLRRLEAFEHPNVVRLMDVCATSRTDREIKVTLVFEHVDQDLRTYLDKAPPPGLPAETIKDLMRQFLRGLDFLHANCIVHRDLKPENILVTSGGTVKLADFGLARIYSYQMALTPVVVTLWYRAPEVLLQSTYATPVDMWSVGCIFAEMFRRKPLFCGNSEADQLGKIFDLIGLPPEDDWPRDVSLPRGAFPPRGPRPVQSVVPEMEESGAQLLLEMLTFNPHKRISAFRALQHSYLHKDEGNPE
Sequence (P24385 whole entry partner): as the sequence (P24385 whole entry partner) above
TEST_NAME: In vitro kinase inhibition assay, CDK4/CycD1
ENDPOINT_NAME: IC50
Phrase the answer as number then unit, nothing more needed.

Fill in the blank: the reported IC50 of COc1ccccc1-c1cc(Nc2cccc(S(N)(=O)=O)c2)ncn1 is ____.
2790 nM

Where do the numbers come from? From patent US20090221581A1.
